Data provenance: PubChem BioAssay (NCI)

The following molecules are shown together with reported growth inhibition values.
Assay: NCI Yeast Anticancer Drug Screen. Data for the rad50 strain (AID 155);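 further: 0% = growth of vehicle-only cultures of the same strain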
Conditions: S. cerevisiae rad50 strain growth inhibition; at 50.0 µM; active compounds read high
About 79,000 compounds went through this panel and 15% of them were active in at least one assay; those are over-represented in the sample as a whole.

{"molecule": "COC1=C(N=[N+]=[N-])C(=O)c2ccccc2C1=O", "growth inhibition (%)": 38}
{"molecule": "CN(C)CCCOC(=O)C(O)(Cc1ccccc1)C1CC1 (stereo unspecified)", "growth inhibition (%)": 10.7}
{"molecule": "Nc1[nH]c(=S)[nH]c(=O)c1N=Cc1ccc2c(c1)OCO2", "growth inhibition (%)": 13.2}
{"molecule": "CCCC(=O)N[C@H]1C[C@H]2CC[C@@]1(C)C2(C)C", "growth inhibition (%)": -31.6}
{"molecule": "c1ccc(CC2CCCC(Cc3ccccc3)N2)cc1 (stereo unspecified)", "growth inhibition (%)": -1.25}
{"molecule": "CN(C)CCN1CCc2c([nH]c3ccccc23)C1c1cccnc1 (stereo unspecified)", "growth inhibition (%)": -55.6}

###

Experiment: NCI Yeast Anticancer Drug Screen. Data for the cln2 rad14 strain (AID 165);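 further: 0% = growth equal to vehicle treated cultures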
Conditions: S. cerevisiae cln2 rad14 strain, at 50.0 µM, active compounds read high
About 79,000 compounds went through this panel and 15% of them were active in at least one assay; those are over-represented in the sample as a whole.
Items are presented alongside their recorded growth inhibition.

{"compound": "CC(=O)CC(=NCC(O)CN=C(CC(C)=O)c1ccccc1)c1ccccc1.[Cu] (stereo not given)", "readoutUnits": "%", "growth inhibition": -18.7}
{"compound": "CC(C)(c1ccccc1)C(C)(C)c1nc(-c2ccccc2)cc(-c2ccccc2)n1", "readoutUnits": "%", "growth inhibition": -95}
{"compound": "COc1nc(NC2OC(CO)C(O)C(O)C2O)c(/C=N/O)c(=O)n1C (stereo not given)", "readoutUnits": "%", "growth inhibition": 6.8}
{"compound": "COCC(N=CN1CCCc2ccccc2[C@@H]1CCCCl)C(C)(C)C (stereo not given in full)", "readoutUnits": "%", "growth inhibition": 19.7}
{"compound": "N=C1N=C(N)C(CCCOc2cc(Cl)ccc2Cl)(CCCOc2cc(Cl)ccc2Cl)C(N)=N1", "readoutUnits": "%", "growth inhibition": 98.5}

###

Assay: NCI Yeast Anticancer Drug Screen. Data for the cln2 rad14 strain (AID 165);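 further: 0% = growth equal to vehicle treated cultures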
Conditions: S. cerevisiae cln2 rad14 strain, at 50.0 µM, active compounds read high
Compounds without any hit were thinned out: in the full panel of roughly 79,000, 15% have a hit. *1 amine or outer side, *2 acyl side, *3 side chain or, on linkers, in order; H or OH if unused. Where a SMILES comes first, the peptide text is derived from it. [ ]: non-standard residue; d: D form. The star is where a group is joined. X17 = CC(=O)N(C)SCC(N[*:1])C(=O)[*:2]; Fmoc = O=C(OCC1c2ccccc2-c2ccccc21)*; For = O=C*
Some compounds, each annotated with its measured growth inhibition.
measuredProperty: growth inhibition (%)

{"compound": "COc1ccc(NC(=O)NCc2ccc(C)cc2)cc1", "measuredProperty": "growth inhibition", "readoutUnits": "%", "measuredNumber": -5.5}
{"compound": "Cc1ccc(C)c(CNC(=O)NC(C)(C)C)c1", "measuredProperty": "growth inhibition", "readoutUnits": "%", "measuredNumber": -63.8}
{"compound": "CCOC(=O)CC1CC2c3cc(OC)c(OC)cc3CCN2CC1CC (stereo not drawn)", "measuredProperty": "growth inhibition", "readoutUnits": "%", "measuredNumber": -5.25}
{"compound": "O=C1CCCCCCCC(=O)Nc2ccc3nc4ccccc4c(c3c2)SCCCCCCCCCCCCSc2c3ccccc3nc3ccc(cc23)N1", "measuredProperty": "growth inhibition", "readoutUnits": "%", "measuredNumber": -9.15}
{"compound": "COc1ccc(-n2nnnc2C2(Nc3ccccc3)CCN(Cc3ccccc3)CC2)cc1", "measuredProperty": "growth inhibition", "readoutUnits": "%", "measuredNumber": 2.65}
{"compound": "OCC1OC(n2cnc3c(NCc4ccccc4)ncnc32)C(O)C1O (stereo not drawn)", "measuredProperty": "growth inhibition", "readoutUnits": "%", "measuredNumber": -44.2}
{"compound": "NC(Cc1cccc2ccccc12)C(=O)O (stereo not drawn)", "measuredProperty": "growth inhibition", "readoutUnits": "%", "measuredNumber": -48.1}
{"compound": "O=C(O)CC(O)c1ccccc1 (stereo not drawn)", "measuredProperty": "growth inhibition", "readoutUnits": "%", "measuredNumber": 17.1}
{"compound": "Cn1ncc2c(=O)[nH]c(NCCO)nc21", "measuredProperty": "growth inhibition", "readoutUnits": "%", "measuredNumber": -16.9}
{"compound": "CC(=O)OCC1CC=CCC1C (stereo not drawn)", "measuredProperty": "growth inhibition", "readoutUnits": "%", "measuredNumber": 1.75}
{"compound": "CCOC(=O)c1[nH]c2nc(N)ncc2c(=O)c1C", "measuredProperty": "growth inhibition", "readoutUnits": "%", "measuredNumber": 43.6}
{"compound": "COc1cccc(CCNC(=O)Cc2ccccc2CCO)c1", "measuredProperty": "growth inhibition", "readoutUnits": "%", "measuredNumber": 9.35}
{"compound": "CNC(=O)c1ccccc1Sc1ccccc1", "measuredProperty": "growth inhibition", "readoutUnits": "%", "measuredNumber": -34.8}
{"compound": "O=C1c2ccccc2C2NCCCN12 (stereo not drawn)", "measuredProperty": "growth inhibition", "readoutUnits": "%", "measuredNumber": -5.65}
{"compound": "O=C(O)C(CBr)c1ccccc1 (stereo not drawn)", "measuredProperty": "growth inhibition", "readoutUnits": "%", "measuredNumber": 13.2}
{"compound": "CC(=O)C(CCN(C)C)(c1ccccc1)C1CCCCC1 (stereo not drawn)", "measuredProperty": "growth inhibition", "readoutUnits": "%", "measuredNumber": -6.65}
{"compound": "S=C(OCCCCCn1cnc2c(=S)nc[nH]c21)Oc1ccccc1", "measuredProperty": "growth inhibition", "readoutUnits": "%", "measuredNumber": -45.8}
{"compound": "CC12C3CC4C5CC(C(C53)[C@@H]1NCc1ccccc1)C42 (stereo partly drawn)", "measuredProperty": "growth inhibition", "readoutUnits": "%", "measuredNumber": 35.4}
{"compound": "CCOc1nc(C(=O)O)cc2ccsc12", "measuredProperty": "growth inhibition", "readoutUnits": "%", "measuredNumber": -48.1}
{"compound": "OC1CCC(C2CCCCC2)CC1 (stereo not drawn)", "measuredProperty": "growth inhibition", "readoutUnits": "%", "measuredNumber": 6.8}
{"compound": "CS(=O)(=O)CC(O)(c1ccc(Cl)cc1)c1ccccn1 (stereo not drawn)", "measuredProperty": "growth inhibition", "readoutUnits": "%", "measuredNumber": -21.6}
{"compound": "CC(=O)N(C)SCC(NC(=O)C(Cc1ccccc1)NC(=O)OCC1c2ccccc2-c2ccccc21)C(=O)NC(Cc1ccccc1)C(=O)NC(Cc1cn(C=O)c2ccccc12)C(=O)NC(CCCCNC(=O)OCC1c2ccccc2-c2ccccc21)C(=O)NC(C(=O)NC(CSN(C)C(C)=O)C(=O)NC(C(N)=O)C(C)O)C(C)O (stereo not drawn) (Fmoc-F[X17]FW(For)K(Fmoc)T[X17]T-NH2; configuration not given here)", "measuredProperty": "growth inhibition", "readoutUnits": "%", "measuredNumber": 82.2}
{"compound": "Fc1ccc(N=C2c3ccccc3-c3ccccc32)cc1", "measuredProperty": "growth inhibition", "readoutUnits": "%", "measuredNumber": 5.3}
